The reported measurements were obtained from ChEMBL document CHEMBL5291721.

Readings of AC50 for the listed compounds
- target: UniProtKB Q14432
- Sequence (Q14432 whole entry): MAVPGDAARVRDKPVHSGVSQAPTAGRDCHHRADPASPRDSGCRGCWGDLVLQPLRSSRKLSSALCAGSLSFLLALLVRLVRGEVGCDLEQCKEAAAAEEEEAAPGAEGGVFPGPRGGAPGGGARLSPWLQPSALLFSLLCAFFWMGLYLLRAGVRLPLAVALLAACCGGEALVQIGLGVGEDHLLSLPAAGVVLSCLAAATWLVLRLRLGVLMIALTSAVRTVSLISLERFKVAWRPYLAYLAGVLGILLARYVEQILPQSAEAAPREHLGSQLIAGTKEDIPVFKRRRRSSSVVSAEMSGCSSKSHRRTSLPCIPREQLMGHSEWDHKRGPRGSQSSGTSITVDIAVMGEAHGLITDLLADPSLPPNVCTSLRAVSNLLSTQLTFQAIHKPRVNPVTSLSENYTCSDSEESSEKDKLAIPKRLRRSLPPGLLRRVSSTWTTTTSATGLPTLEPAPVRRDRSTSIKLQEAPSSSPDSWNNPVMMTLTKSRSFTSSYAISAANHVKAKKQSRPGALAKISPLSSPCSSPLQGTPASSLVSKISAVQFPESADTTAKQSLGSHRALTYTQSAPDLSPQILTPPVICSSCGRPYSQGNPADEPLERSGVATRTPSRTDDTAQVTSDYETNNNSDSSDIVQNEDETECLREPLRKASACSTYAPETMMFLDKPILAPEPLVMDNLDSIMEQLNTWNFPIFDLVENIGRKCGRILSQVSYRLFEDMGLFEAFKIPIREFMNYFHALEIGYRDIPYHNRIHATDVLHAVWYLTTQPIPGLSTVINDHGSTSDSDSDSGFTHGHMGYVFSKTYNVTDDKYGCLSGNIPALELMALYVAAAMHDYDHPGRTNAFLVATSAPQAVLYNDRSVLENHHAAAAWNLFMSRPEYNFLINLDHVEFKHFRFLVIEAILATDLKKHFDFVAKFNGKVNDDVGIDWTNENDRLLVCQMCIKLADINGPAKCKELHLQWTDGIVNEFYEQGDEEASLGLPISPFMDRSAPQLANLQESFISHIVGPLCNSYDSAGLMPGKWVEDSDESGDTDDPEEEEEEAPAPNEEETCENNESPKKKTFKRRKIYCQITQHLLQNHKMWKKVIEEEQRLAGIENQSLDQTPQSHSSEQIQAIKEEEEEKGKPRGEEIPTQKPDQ
- Format: functional
property.name: AC50

INSERT INTO measurements (compound, property_name, result) VALUES
  ('CCNC(=O)CCC/C=C\C[C@@H]1[C@@H](/C=C/[C@@H](O)CCc2ccccc2)[C@H](O)C[C@@H]1O', 'AC50', '> 30 µM'),
  ('C[C@H](Cn1cnc2c(N)ncnc21)OCP(=O)(O)O [TENOFOVIR ANHYDROUS]', 'AC50', '> 30 µM'),
  ('CCN(CC)C(C)C(=O)c1ccccc1 (stereo not drawn)', 'AC50', '> 30 µM'),
  ('COC(=O)c1ccc2c(c1)NC(=O)/C2=C(\Nc1ccc(N(C)C(=O)CN2CCN(C)CC2)cc1)c1ccccc1', 'AC50', '> 30 µM'),
  ('O=C(Cc1cccs1)N[C@@H]1C(=O)N2C(C(=O)[O-])=C(C[n+]3ccccc3)CS[C@H]12', 'AC50', '> 30 µM'),
  ('C#CCN(C)Cc1ccccc1', 'AC50', '> 30 µM'),
  ('C[C@]12CCC(=O)C=C1CC[C@H]1[C@@H]3CC[C@](O)(C(=O)CO)[C@@]3(C)C[C@H](O)[C@@]12F', 'AC50', '> 30 µM'),
  ('CCOC(=O)Nc1ccc(NCc2ccc(F)cc2)nc1N', 'AC50', '> 30 µM'),
  ('CN(C)CCN(Cc1ccccc1)c1ccccn1', 'AC50', '> 10 µM'),
  ('CS(=O)(=O)Nc1ccc([N+](=O)[O-])cc1Oc1ccccc1 [NIMESULIDE]', 'AC50', '> 30 µM'),
  ('COc1nc(C)nc(Cl)c1N=C1NCCN1', 'AC50', '> 30 µM'),
  ('CCOC(=O)C1=C(C)NC(C)=C(C(=O)OC)C1c1cccc(Cl)c1Cl (stereo not drawn)', 'AC50', '> 30 µM'),
  ('NCC1(CC(=O)O)CCCCC1', 'AC50', '> 30 µM'),
  ('CC(C)NCC(O)COc1ccc(CC(N)=O)cc1 (stereo not drawn)', 'AC50', '> 30 µM'),
  ('Cc1cn(-c2cc(NC(=O)c3ccc(C)c(Nc4nccc(-c5cnccn5)n4)c3)cc(C(F)(F)F)c2)cn1', 'AC50', '30 µM'),
  ('OCCN(CCO)c1nc(N2CCCCC2)c2nc(N(CCO)CCO)nc(N3CCCCC3)c2n1', 'AC50', '> 30 µM'),
  ('Nc1nnc(-c2cccc(Cl)c2Cl)c(N)n1', 'AC50', '2.1 µM'),
  ('CCN(CC)Cc1nccn1-c1ccc([N+](=O)[O-])cc1C(=O)c1ccccc1Cl', 'AC50', '> 30 µM');

====

Parameter 'readout' = AC50; parameter 'system' = Melanocortin receptor 3 (Homo sapiens, UniProt P41968). Note: assay procedure not described here.
Sequence (P41968 whole entry): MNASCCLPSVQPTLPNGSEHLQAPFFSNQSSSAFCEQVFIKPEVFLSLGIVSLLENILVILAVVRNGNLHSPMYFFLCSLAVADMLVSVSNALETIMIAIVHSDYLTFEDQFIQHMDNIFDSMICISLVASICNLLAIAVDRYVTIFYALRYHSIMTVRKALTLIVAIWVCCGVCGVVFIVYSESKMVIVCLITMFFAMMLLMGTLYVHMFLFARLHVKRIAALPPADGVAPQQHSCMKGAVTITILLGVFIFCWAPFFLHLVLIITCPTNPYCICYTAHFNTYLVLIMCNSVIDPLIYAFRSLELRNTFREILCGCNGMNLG
property.name: AC50

INSERT INTO measurements (compound, result) VALUES
  ('Cn1cnc2c(F)c(Nc3ccc(Br)cc3F)c(C(=O)NOCCO)cc21', '> 30 µM'),
  ('CCN1C(=O)NC(c2ccccc2)C1=O (centres undefined)', '> 30 µM'),
  ('Cc1cnc(Nc2ccc(OCCN3CCCC3)cc2)nc1Nc1cccc(S(=O)(=O)NC(C)(C)C)c1', '> 30 µM'),
  ('C[C@]12C=CC(=O)C=C1CC[C@@H]1[C@@H]2[C@@H](O)C[C@@]2(C)[C@H]1CC[C@]2(O)C(=O)CO', '> 30 µM'),
  ('CN1CC2c3ccccc3Oc3ccc(Cl)cc3C2C1 (centres undefined)', '> 30 µM'),
  ('CN(C)CCC=C1c2ccccc2CCc2ccccc21', '23 µM'),
  ('C[C@]12CCC(=O)C=C1[C@@H]1C[C@@H]1[C@H]1[C@@H]3[C@@H]4C[C@@H]4[C@@]4(CCC(=O)O4)[C@@]3(C)CC[C@@H]12', '> 30 µM'),
  ('COc1cc2c(cc1OC)C1CC(=O)C(CC(C)C)CN1CC2 (centres undefined)', '> 30 µM'),
  ('CCC1(C)CC(=O)NC1=O (centres undefined) [ETHOSUXIMIDE]', '> 10 µM'),
  ('CCN(CC)CCCN(c1ccccc1)C1Cc2ccccc2C1', '> 30 µM'),
  ('Oc1cc(O)c2c(c1)O[C@H](c1ccc(O)c(O)c1)[C@@H](O)C2', '> 30 µM'),
  ('CC(NC(C)(C)C)C(=O)c1cccc(Cl)c1 (centres undefined)', '> 30 µM'),
  ('O=C(O)c1nn(Cc2ccc(Cl)cc2Cl)c2ccccc12', '> 30 µM'),
  ('CCCCCCOC(=O)NC(=N)c1ccc(NCc2nc3cc(C(=O)N(CCC(=O)OCC)c4ccccn4)ccc3n2C)cc1 [DABIGATRAN ETEXILATE]', '> 30 µM'),
  ('CCN(CC)CCn1c(=O)c(Cc2ccc(OC)cc2)nc2ccccc21', '> 30 µM'),
  ('CN1C2CCCC1CC(NC(=O)c1nn(C)c3ccccc13)C2 (centres undefined)', '> 30 µM'),
  ('CN1CCCN=C1/C=C/c1cccc(O)c1', '> 30 µM'),
  ('OCC(CO)N[C@H]1C[C@](O)(CO)[C@@H](O)[C@H](O)[C@H]1O', '> 30 µM'),
  ('CCC1(CC)C(=O)NC(=O)N(C)C1=O', '> 10 µM');
